The reported measurements were obtained from paper PMC9820559.

Molecular target: T1, RSV N-RNA complex (full-length N protein in ring-shaped complexes with bacterial RNA) (human respiratory syncytial virus, UniProt P03418 1-391)
T1 construct: human RSV nucleoprotein N, full length; concentrations are of N protomer; also called N-RNA rings; source: in lysate for the co-purification; purified (glutathione-Sepharose, thrombin, Superdex 200) as N-RNA complex; copies: 10-11
T1 sequence (looked up): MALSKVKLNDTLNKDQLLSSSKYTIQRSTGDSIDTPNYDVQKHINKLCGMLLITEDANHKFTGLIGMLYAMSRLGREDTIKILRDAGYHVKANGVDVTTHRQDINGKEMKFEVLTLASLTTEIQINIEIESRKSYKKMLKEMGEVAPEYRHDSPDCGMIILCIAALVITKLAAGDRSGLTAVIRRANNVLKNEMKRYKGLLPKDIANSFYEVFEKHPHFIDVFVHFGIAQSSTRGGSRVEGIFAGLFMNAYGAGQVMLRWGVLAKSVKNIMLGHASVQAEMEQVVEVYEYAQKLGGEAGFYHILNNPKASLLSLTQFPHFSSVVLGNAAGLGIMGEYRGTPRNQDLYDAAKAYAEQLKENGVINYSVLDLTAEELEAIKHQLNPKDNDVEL
Test: fluorescence polarisation; competition: unlabeled P peptide varied against 200 nM F11 on 10 µM N-RNA; Tris pH 8 without salt; Hill equation; Ki from the IC50-to-Ki server
Conditions: both partners purified
pKi: −log10 of the molar value.

binder: DNDLELEDF (unlabeled peptide from which F9E was made; C-terminal 9 residues of RSV phosphoprotein P; source: synthetic peptide (Fmoc/tBu solid phase, RP-HPLC purified)) [P9E (unlabeled RSV P 9-mer, Ser237Glu)]
pKi: 4.60

binder: DSDNDLSLEDF (unlabeled peptide from which F11 was made; C-terminal 11 residues of RSV phosphoprotein P; also called P_(11SS); source: bought: GeneCust (synthetic peptide, >95% purity)) [P11 (unlabeled RSV P C-terminal 11-mer)]
pKi: 4.47

binder: DEDNDLELEDF (unlabeled peptide from which F_(11EE) was made; C-terminal 11 residues of RSV phosphoprotein P; source: synthetic peptide (Fmoc/tBu solid phase, RP-HPLC purified)) [P_(11EE) (unlabeled RSV P 11-mer, Ser232Glu/Ser237Glu)]
pKi: 5.22

binder: DLELEDF (unlabeled peptide from which F7E was made; C-terminal 7 residues of RSV phosphoprotein P; source: synthetic peptide (Fmoc/tBu solid phase, RP-HPLC purified)) [P7E (unlabeled RSV P 7-mer, Ser237Glu)]
pKi: 4.12
